# system_name: Peroxisome proliferator-activated receptor alpha (Homo sapiens)
# Sequence (Q07869 whole entry): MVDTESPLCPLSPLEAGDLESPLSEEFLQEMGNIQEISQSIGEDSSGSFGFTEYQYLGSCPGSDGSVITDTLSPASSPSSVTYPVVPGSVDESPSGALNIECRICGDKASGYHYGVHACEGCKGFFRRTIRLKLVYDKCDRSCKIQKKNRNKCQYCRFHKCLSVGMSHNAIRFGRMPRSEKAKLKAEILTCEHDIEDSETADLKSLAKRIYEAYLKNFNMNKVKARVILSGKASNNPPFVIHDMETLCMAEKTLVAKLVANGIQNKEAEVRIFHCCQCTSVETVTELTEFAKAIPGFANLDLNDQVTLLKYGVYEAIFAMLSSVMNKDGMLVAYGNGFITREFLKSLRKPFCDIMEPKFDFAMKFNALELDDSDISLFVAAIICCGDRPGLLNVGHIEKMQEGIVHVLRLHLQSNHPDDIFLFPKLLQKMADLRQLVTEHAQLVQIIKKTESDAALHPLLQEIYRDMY
# procedure_details: Agonist activity at human PPAR alpha in human HepG2 cells after 20 hrs by luciferase reporter assay
reported_property: EC50 (nM)
Give bare numbers, in nM.

Data request: Requested field: EC50. Item: `Cc1cc(-n2nc3ccccc3n2)cc(C)c1OC(C)(C)C(=O)O`
Data returned: 96

###

# procedure_details: Cytotoxicity against BHK cells assessed as cell viability after 48 to 96 hrs by MTT assay
# Format: cell-based, Mesocricetus auratus
# assay_setup: hamster
reported_property: CC50

[
  {
    "molecule": "C#C[C@@]1(O)[C@H](O)[C@@H](CO)O[C@H]1n1ccc(N)nc1=O [2'-ETHYNYL-D-CYTIDINE]",
    "value_observed": "> 100 µM"
  },
  {
    "molecule": "Clc1cc2nnn(C3CCCO3)c2cc1Cl (stereo unspecified)",
    "value_observed": "> 100 µM"
  },
  {
    "molecule": "Oc1ccc(-n2nc3cc(Cl)c(Cl)cc3n2)cc1",
    "value_observed": "28 µM"
  },
  {
    "molecule": "COc1ccc2nn(-c3ccc(OCCCC(C)(C)C(=O)O)cc3)nc2c1",
    "value_observed": "50 µM"
  },
  {
    "molecule": "COc1cc(/C=C/C(=O)OCCCn2nnc3ccccc32)cc(OC)c1OC",
    "value_observed": "> 100 µM"
  }
]

From here, focus on the item given below.
Data request: Which measured CC50 value corresponds to `O=C(Cn1nnc2ccccc21)N1CCOCC1` ?
Data returned: > 100 µM

###

Kindly state EC50 for each of the entries shown.
# Test system: Respiratory syncytial virus
# procedure_details: Antiviral activity against RSV
# Assay type: functional, organism-based
# assay_setup: human respiratory syncytial virus
Answers are plain numbers, in µM.

[
  {
    "input_smiles": "O=c1n(Cc2nc3ccccc3n2CCCCO)c2cnccc2n1C1CC1",
    "system_name": "Respiratory syncytial virus",
    "reported_property": "EC50",
    "scale_unit": "µM",
    "value_observed": 0.01
  }
]

Kindly consider the entry below.
Data request: Entry `Clc1ccc2c(c1)nc(Cn1nnc3ccccc31)n2CC[C@@H]1CCCN2CCCC[C@H]12` , system Respiratory syncytial virus: what EC50 was measured?
Data returned: 0.02

###

# procedure_details: Cytotoxicity against african green monkey Vero 76 cells assessed as cell viability after 48 to 96 hrs by crystal violet staining method
# Type: cell-based
# assay_setup: chlorocebus sabaeus
reported_property: CC50

Solved entries (count: 3):
[
  {
    "molecule": "COc1ccc(Cn2nc3cc(Cl)c(Cl)cc3n2)cc1",
    "value_observed": "> 100 µM"
  },
  {
    "molecule": "Clc1cc2nnn(C3CCCCO3)c2cc1Cl (configuration not stated)",
    "value_observed": "≥ 100 µM"
  },
  {
    "molecule": "COc1ccc(Cn2nc3ccc(C(F)(F)F)cc3n2)cc1",
    "value_observed": "> 100 µM"
  }
]

Required: CC50, one value per molecule below.
1. Cc1ccc2nn(-c3ccc(OCCCC(C)(C)C(=O)O)cc3)nc2c1
2. Nc1nc2c(ncn2COCCO)c(=O)[nH]1 [ACYCLOVIR]
3. CN(C)c1cccc(C(=O)OCCn2nnc3ccccc32)c1
4. CC(C)(CCCOc1ccc(-n2nc3ccccc3n2)cc1)C(=O)O

Data returned:
1: 15 µM; 2: > 100 µM; 3: ≥ 100 µM; 4: 25 µM
